The origin of these recorded values is PubChem BioAssay (Tox21).

# measurementDescription: qHTS RealTime-Glo MT Cell Viability Assay in HEK293 cells - 0 hour (AID 1224880); further: top concentration of the series differs between compounds; nearly all actives have a fitted effect of over 45% in size
# runConditions: RealTime-Glo luminescence; series mostly up to 76.8 µM
# Text: U.S. Tox21 Program National Center for Advancing Translational Sciences [NCATS] NIH Chemical Genomics Center [NCGC] U.S. Environmental Protection Agency [EPA] National Institutes of Environmental Health Sciences [NIEHS] National Toxicology Program [NTP] U.S. Food and Drug Administration [FDA] Tox21 Assay Overview: Measure of cell viability is critical in the cell-base assay. Analysis of cell viability is necessary for the characterization of cell responses to cytotoxic drugs and environmental stress. […]
Records with an inconclusive call do not appear. Activity calls are given as the source filed them. The call rests on the fitted dose curve; in most records, active means well fitted cell-killing curve with a large enough effect in the repeat runs; inconclusive means weak or mixed curves, or effect the other way; inactive means flat fitted curve, though single readings scatter.
reportedEndpoint: outcome

Consider the following illustrative entries.
compound	outcome
ClCBr	inactive
ClC(Cl)C(Cl)(Cl)Cl	inactive
CCC(C)c1cccc(C(C)CC)c1O (configuration not stated)	inactive
C#CCO	inactive
CCCCc1ccccc1	inactive

Give the measured outcome of "O=[N+]([O-])c1cccc2cccc([N+](=O)[O-])c12" .
inactive

Try "[O]=[Cr][O][Cr]=[O]" next.
inactive

Can you handle "COCCC#N" next?
inactive

"ClSC(Cl)(Cl)Cl" , same question.
inactive

And the next one, NC1CCC(CC2CCC(N)CC2)CC1 (configuration not stated) ?
inactive

Likewise for "C=C(C)C(=O)[O][Sn]([CH2]CCC)([CH2]CCC)[CH2]CCC" ?
inactive

Now this one: "CCCCn1cc[n+](C)c1.[Cl][Fe-]([Cl])([Cl])[Cl]"
inactive

Subsequent entry: "CN(C)c1ccc(N)cc1"
inactive

Continue with "CSC(C)(C)/C=N/O"
inactive

Try this compound next: "S=C=NCCc1ccccc1"
inactive

Query "O=c1c2ccccc2c(=O)c2c1cc(Cl)c1[nH]c3c([nH]c12)c(Cl)cc1c(=O)c2ccccc2c(=O)c13" next
inactive

Another: "CCOP(=O)(OCC)Oc1cc(C)nc(C(C)C)n1"
inactive

Then what about the compound "CCCCCCCc1ccc(O)cc1" ?
inactive

Now try CC(C)[C@@H](Nc1ccc(C(F)(F)F)cc1Cl)C(=O)OC(C#N)c1cccc(Oc2ccccc2)c1 (some centres not stated) .
inactive

And what about the compound "CC(=O)[O-].CC(=O)[O-].[Co+2]" ?
inactive

---

# measurementDescription: qHTS assay to identify small molecule agonists of the RXR signaling pathway - cell viability counter screen (AID 1159529); further: nearly all actives have a fitted effect of over 50% in size
# runConditions: RXR-alpha-bla HEK293T viability, CellTiter-Glo, 16 h; series mostly up to 76.8 µM
Results filed as inconclusive are left out. Active and inactive are the calls of the source. Calls come from the whole dose curve; as a rule, active = well fitted cell-killing curve with a large enough effect in the repeat runs; inconclusive = weak or mixed curves, or effect the other way; inactive = no such curve, though single readings can be large or run the other way.
Outcomes you can answer with include only these: T for active, F for inactive

Field: example entries. Status: answers known.
molecule	answerLabel
CC(=O)[O-].CC(=O)[O-].CC(=O)[O-].[Cr+3]	F
C=Cc1cccc(CCl)c1	F
CC(Cc1ccc(O)cc1)NCC(O)c1cc(O)cc(O)c1 (configuration not stated)	F

GET /call?item= "C[C@]12C/C(=C/O)C(=O)C[C@@H]1CC[C@@H]1[C@@H]2CC[C@@]2(C)[C@H]1CC[C@]2(C)O" returns the recorded outcome of this test.
T

And "Fc1ccc(C(OCCN2CCN(CCCc3ccccc3)CC2)c2ccc(F)cc2)cc1" ?
T

Then "COc1cnc(OC)n2nc(NS(=O)(=O)c3c(OCC(F)F)cccc3C(F)(F)F)nc12" ?
F

Another molecule to check: "C[C@]12Cc3cn[nH]c3C[C@@H]1CC[C@@H]1[C@@H]2CC[C@@]2(C)[C@H]1CC[C@]2(C)O"
T
